All values here come from patent US11225645B2.

test system: coenzyme-binding glucose dehydrogenase; assay: Inhibitor test, additives added to Enzymatic activity measurement method 1; type: biochemical, Aspergillus terreus; conditions: additive 1 mM final concentration
Threshold-based label: Inhibition (%) under 8% gives T, Inhibition (%) not under 8% gives F.

These recorded examples may help you get a feel for the data.
MOLECULE | ANSWER LABEL
O=C(O)/C=C/C(=O)O | T
N[C@@H]1CON=C1O | T
[Cl-].[Li+] | T
CCN(CC)CCCC(C)Nc1c2ccc(Cl)cc2nc2ccc(OC)cc12 (stereo not drawn) | T

**Q:** Below 8% on Inhibition (%)? Entry `O=C(O)CC(O)(CC(=O)O)C(=O)O`
**A:** T

**Q:** Bench note: check whether `c1ccc(-c2ccccn2)nc1` shows Inhibition (%) below 8%
**A:** F

**Q:** Say whether its Inhibition (%) is strictly beneath 8%. Entry: `NCCS`
**A:** F

**Q:** Please state whether Inhibition (%) is below 8% for `CC(O)C(=O)O.CCOc1ccc2nc3cc(N)ccc3c(N)c2c1`
**A:** F

**Q:** Determine if `O=C(O)[C@@H](O)[C@H](O)C(=O)O` shows Inhibition (%) strictly lower than 8%.
**A:** F

**Q:** I wonder whether `[Ba+2].[Cl-].[Cl-]` has Inhibition (%) below 8%. Can you tell?
**A:** T

**Q:** # TODO verify Inhibition (%) < 8% strictly for this molecule: `c1cnc2c(c1)ccc1cccnc12`
**A:** F

* * *

Measured Inhibition (%) accompanies every entry in the list below.
tested on: coenzyme-binding glucose dehydrogenase; assay: Inhibitor test, additives added to Enzymatic activity measurement method 1; format: biochemical, Aspergillus terreus; conditions: additive 1 mM final concentration
# unit: % | format: bare number

Look over these answered cases.
COMPOUND | Inhibition (%)
Nc1ccc2cc3ccc(N)cc3nc2c1 [Proflavin] | 62.0
[Cl][Hg][Cl] [HgCl2] | 100
CC(C)(S)C(N)C(=O)O (racemic) [DL-Penicillamine] | 4.3
CCN1C(=O)C=CC1=O [N-Ethylmaleimide] | 1.8
O=C(O)c1ccccc1[N+](=O)[O-] [2-Nitrobenzoic acid] | 44.3

**Q:** Supply measured Inhibition (%) of O=C(O)C(O)C(O)C(=O)O (stereo not drawn) [Meso-tartaric acid] in your reply.
**A:** 5.6

**Q:** Supply measured Inhibition (%) of O=C(O)/C=C\C(=O)O [Maleic acid] in your reply.
**A:** 26.2

**Q:** Query Inhibition (%) for NC(N)=O [Urea]
**A:** 1.9

* * *

system: coenzyme-binding glucose dehydrogenase; assay: Substrate specificity and Km value, Enzymatic activity measurement method 1; type: biochemical, Aspergillus terreus; settings: substrate 333 mM final; activity on D-glucose = 100%
READOUT LABEL: Relative activity (%)
Respond with the bare value in %.

The examples below pair each entry with its known result.
MOLECULE | RESULT UNITS | Relative activity (%)
O=C[C@H](O)[C@@H](O)[C@H](O)[C@H](O)COP(=O)(O)O [D-Glucose-6-phosphate] | % | 1.1
O=CC[C@@H](O)[C@H](O)[C@H](O)CO | % | 48
O=C[C@H](O)[C@@H](O)[C@H](O)[C@H](O)CO | % | 100
O=C(CO)[C@@H](O)[C@H](O)[C@H](O)CO | % | 0.86
OC[C@H]1OC[C@H](O)[C@@H](O)[C@@H]1O [1,5-Anhydro-D-glucitol] | % | 2

**Q:** Give a short answer stating reported Relative activity (%) for `O=C[C@@H](O)[C@@H](O)[C@H](O)[C@H](O)CO` .
**A:** 2.8

**Q:** Please supply the value of reported Relative activity (%) for the item `O=C[C@H](O)[C@@H](O)[C@@H](O)[C@H](O)CO`
**A:** 1.2
